Target: human TGR5 (Homo sapiens, UniProt Q8TDU6)
Construct: expressed in transfected cells; host or cells: HEK293
Sequence (Q8TDU6 1-330): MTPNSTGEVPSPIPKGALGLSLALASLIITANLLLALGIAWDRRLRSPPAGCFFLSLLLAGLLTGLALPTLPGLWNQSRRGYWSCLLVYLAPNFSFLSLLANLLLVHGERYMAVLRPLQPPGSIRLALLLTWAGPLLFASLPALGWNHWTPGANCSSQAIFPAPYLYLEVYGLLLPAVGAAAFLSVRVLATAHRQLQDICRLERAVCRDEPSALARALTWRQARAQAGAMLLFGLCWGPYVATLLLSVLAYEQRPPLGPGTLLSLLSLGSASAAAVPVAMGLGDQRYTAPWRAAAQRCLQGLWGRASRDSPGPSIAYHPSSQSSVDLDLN
Assay: Cell-based TGR5 assay (cAMP generation, HTRF)
Conditions: HEK293 cells stably transfected with human TGR5; cAMP by HTRF; 30 minutes at 37° C.; read-out: pEC50 Human TGR5 (converted)
measured-property: EC50

COCCN(C[C@H](O)[C@@H](O)[C@H](O)[C@H](O)CO)C(=O)CCCCc1cc(Cl)c(COC2(c3cnccc3-c3ccccc3OC3CC3)CC2)cc1Cl: < 100 nM
CSc1ncc(C)c(CNC2(c3cnccc3-c3ccccc3OC3CC3)CC2)n1: < 100 nM
CNC(=O)CN(C[C@H](O)[C@@H](O)[C@H](O)[C@H](O)CO)C(=O)CCCSc1ccc(Cl)c(COC2(c3cnccc3-c3ccccc3OC3CC3)CC2)c1: 126 to 1000 nM
Cc1cc(COC2(c3cnccc3-c3ccccc3OC3CC3)CC2)c(Cl)cc1CCCCNC(=O)NCC(=O)NCC(=O)NCC(=O)O: < 100 nM
O=C(NC[C@H](O)[C@@H](O)[C@H](O)[C@H](O)CO)c1cccc(OCc2ccc(Cl)c(COC3(c4cnccc4-c4ccccc4OC4CC4)CC3)c2)c1: 126 to 1000 nM
CC(CCCCC(=O)NC[C@H](O)[C@@H](O)[C@H](O)[C@H](O)CO)c1ccc(Cl)c(CNC2(c3cnccc3-c3ccccc3OC3CC3)CC2)c1 (stereo partly drawn): < 100 nM
CC(CCCC(=O)N(CCC(N)=O)C[C@H](O)[C@@H](O)[C@H](O)[C@H](O)CO)c1ccc(Cl)c(CNC2(c3cnccc3-c3ccccc3OC3CC3)CC2)c1 (stereo partly drawn): 126 to 1000 nM
O=S(=O)(c1ccc(Cl)c(COC2(c3cnccc3-c3ccccc3OC3CC3)CC2)c1)N1CCCCC1: < 100 nM
O=C(CCCCc1cc(Cl)c(COC2(c3cnccc3-c3ccccc3OC3CC3)CC2)cc1Cl)NCCCN1CCN(CCCNC(=O)CCCCc2cc(Cl)c(COC3(c4cnccc4-c4ccccc4OC4CC4)CC3)cc2Cl)CC1: 1260 to 10000 nM
Cc1ccc(Cl)cc1COC1(c2cnccc2-c2ccccc2OC2CC2)CC1: < 100 nM
CC(CCCC(=O)N(CCCO)C[C@H](O)[C@@H](O)[C@H](O)[C@H](O)CO)c1ccc(Cl)c(CNC2(c3cnccc3-c3ccccc3OC3CC3)CC2)c1 (stereo partly drawn): < 100 nM
O=C(NC[C@H](O)[C@@H](O)[C@H](O)[C@H](O)CO)[C@H]1CC[C@H](CNS(=O)(=O)c2ccc(Cl)c(COC3(c4cnccc4-c4ccccc4OC4CC4)CC3)c2)CC1: < 100 nM
CC(CCCC(=O)N(CC(=O)N(C)C)C[C@H](O)[C@@H](O)[C@H](O)[C@H](O)CO)c1ccc(Cl)c(CNC2(c3cnccc3-c3ccccc3OC3CC3)CC2)c1 (stereo partly drawn): 126 to 1000 nM
CC(CCCN(CCOCCO)C(=O)[C@@H](O)[C@@H](O)[C@H](O)[C@@H](O)CO)c1ccc(Cl)c(CNC2(c3cnccc3-c3ccccc3OC3CC3)CC2)c1 (stereo partly drawn): < 100 nM
CCS(=O)(=O)CCN(CCCCC(C)c1ccc(Cl)c(CNC2(c3cnccc3-c3ccccc3OC3CC3)CC2)c1)C(=O)[C@@H](O)[C@@H](O)[C@H](O)[C@@H](O)CO (stereo partly drawn): < 100 nM
O=C(NCCOCCS(=O)(=O)c1ccc(Cl)c(COC2(c3cnccc3-c3ccccc3OC3CC3)CC2)c1)N[C@@H](CO)[C@@H](O)[C@H](O)[C@H](O)CO: < 100 nM
CC(C)CN(CCCCNC(=O)N[C@@H](CO)[C@@H](O)[C@H](O)[C@H](O)CO)S(=O)(=O)c1ccc(Cl)c(COC2(c3cnccc3-c3ccccc3OC3CC3)CC2)c1: < 100 nM
CC(=O)NCCCCN(CCCSc1ccc(Cl)c(COC2(c3cnccc3-c3ccccc3OC3CC3)CC2)c1)C(=O)[C@@H](O)[C@@H](O)[C@H](O)[C@@H](O)CO: < 100 nM
